System: RPMI-8226 leukemia
Assay: NCI tumour cell line growth inhibition, 48 h
Entries and their measured TGI follow.
Give the number; µM is assumed, so skip it.

# example entries with known answers
[
  {
    "Compound": "COc1ccc(OC(C)=O)c2c1CCC=CC2=O",
    "Assay Endpoint": "TGI",
    "Test Value": 3.96
  },
  {
    "Compound": "OCc1cc2c(ccc3sc4ccc5sc6ccc7ncccc7c6c5c4c32)s1",
    "Assay Endpoint": "TGI",
    "Test Value": 96.2
  },
  {
    "Compound": "CCCCCC1CC=CC(=O)O1 (stereo not drawn)",
    "Assay Endpoint": "TGI",
    "Test Value": 12.4
  },
  {
    "Compound": "CC[C@@H]1[C@@H](C)O[C@@](O)([C@@H](C)[C@H](O)[C@H](C)[C@H]2OC(=O)/C=C/C=C/[C@H](C)[C@@H]([C@@H](C)[C@@H](O)[C@H](C)[C@@]3(O)C[C@@H](O[C@H]4C[C@@H](O)[C@H](O)C(C)O4)[C@H](CC)[C@@H](C)O3)OC(=O)/C=C/C=C/[C@@H]2C)C[C@H]1O[C@@H]1C[C@@H](O)[C@H](O)C(C)O1 (stereo partly drawn)",
    "Assay Endpoint": "TGI",
    "Test Value": 0.153
  },
  {
    "Compound": "COc1cc(/C=C2/SC(c3ccccc3)N(Cc3ccccc3)C2=O)cc(OC)c1OC (stereo not drawn)",
    "Assay Endpoint": "TGI",
    "Test Value": 75.1
  }
]

In the following, a different compound is considered.
Enquiry: If you can, please state the reported TGI value of C=C1CCCC2[C@](C)(CC3=C(Cl)C(=O)C=C(OC)C3=O)C(C)CC[C@]12C (stereo partly drawn) .
Return: 14.6

---

Test system: HL-60(TB) leukemia
Assay: NCI tumour cell line growth inhibition, 48 h
Entries and their measured TGI follow.

# example entries with known answers
[
  {
    "Compound": "COc1ccc(-c2csc(=Nc3ccccc3)n2CCCN(C)C)cc1",
    "TGI": "> 100 µM"
  },
  {
    "Compound": "CC[C@H]1CN2CCc3cc(OC)c(OC)cc3C2C[C@@H]1CC1NCCc2cc(OC)c(OC)cc21 (stereo not given in full)",
    "TGI": "0.144 µM"
  },
  {
    "Compound": "COc1nc2ccc(COc3ccc(C(=O)NC(CCC(=O)O)C(=O)O)cc3)cc2nc1OC (stereo not given)",
    "TGI": "> 10 µM"
  },
  {
    "Compound": "COc1cc(C(=O)/C=C/c2ccc(OCCSCCCCCCCCCCSCCOc3ccc(/C=C/C(=O)c4cc(OC)c(OC)c(OC)c4)cc3)cc2)cc(OC)c1OC",
    "TGI": "> 100 µM"
  },
  {
    "Compound": "O=C1/C(=N\\O)c2ccccc2S1(=O)=O",
    "TGI": "> 100 µM"
  },
  {
    "Compound": "CCN(CC)C(=O)Cn1c(-c2ccccc2)cc2ccccc21",
    "TGI": "> 100 µM"
  },
  {
    "Compound": "COc1ccc2sc3cccc(NCCN(C)C)c3c(=O)c2c1",
    "TGI": "4.74 µM"
  },
  {
    "Compound": "O=c1[nH]nc(Cc2ccc(Cl)cc2)n1/N=C/c1ccco1",
    "TGI": "> 100 µM"
  }
]

Enquiry: If you can, please state the reported TGI value of CC(=O)OC1CC2CCN3C(=O)c4cc5c(cc4[C@H](C1OC(C)=O)C23)OCO5 (stereo not given in full) .
Return: > 100 µM

Enquiry: Try this compound too: Cc1c2ccnc(C(=O)NCCN(C)C)c2cc2c3cc(O)ccc3n(C)c12
Return: 0.532 µM

---

Entries and their measured TGI follow.
Tested on: KM12 colon
Assay: NCI tumour cell line growth inhibition, 48 h
Give the number; µM is assumed, so skip it.

# example entries with known answers
[
  {
    "Structure Smiles String": "Cn1cc(C2=C(c3ccccc3[N+](=O)[O-])C(=O)NC2=O)c2ccccc21",
    "TGI / µM": 13.3
  },
  {
    "Structure Smiles String": "COc1cc(/C=C2\\C[C@H]3[C@@H]4CC=C5C[C@@H](O)CC[C@]5(C)[C@H]4CC[C@]3(C)[C@H]2O)ccc1OCCN1CCCC1",
    "TGI / µM": 19.8
  },
  {
    "Structure Smiles String": "CN1CCC(COc2cnc(-c3cccc(Cn4nc(-c5cccc(C#N)c5)ccc4=O)c3)nc2)CC1",
    "TGI / µM": 16.5
  }
]

In the following, a different compound is considered.
Enquiry: Give KM12 colon TGI for CCN(CC)Cc1cc(Nc2c3ccccc3nc3c2[nH]c2ccccc23)cc(CN(CC)CC)c1O
Return: 10.6

---

System: SF-268 CNS
Assay: NCI tumour cell line growth inhibition, 48 h
Label t when TGI is at or above 30 µM; anything below gets f.

[
  {
    "Compound": "Nc1nc2c(ncn2C2CCC(CO)O2)c(=O)n1C(=O)c1ccccc1 (centres undefined)",
    "Target Entity": "SF-268 CNS",
    "Cat": "t"
  },
  {
    "Compound": "Cc1c2ccnc(C(=O)NCCN(C)C)c2cc2c3cc(O)ccc3n(C)c12",
    "Target Entity": "SF-268 CNS",
    "Cat": "f"
  },
  {
    "Compound": "CCC(CC)c1nc(Nc2ccc(C(=O)OC)cc2)c2ccccc2n1",
    "Target Entity": "SF-268 CNS",
    "Cat": "f"
  }
]

Enquiry: State whether the measured TGI reaches 30 µM, counting equality as reaching it, for Cn1c(NNc2ccccc2)cc(=O)[nH]c1=O
Return: t

Enquiry: Try this compound too: CC(=O)Nc1ccccc1-c1nc2ccccc2nc1C
Return: t

---

Entries and their measured TGI follow.
Tested on: OVCAR-4 ovarian
Experiment: NCI tumour cell line growth inhibition, 48 h

[
  {
    "Molecule": "O=c1[nH]nc(Cc2ccc(Cl)cc2)n1/N=C/c1ccco1",
    "TGI": "> 100 µM"
  },
  {
    "Molecule": "CCCCCCCCOCC(O)COC(C)C (stereo not given)",
    "TGI": "> 100 µM"
  },
  {
    "Molecule": "COc1ccc2c(c1)[n+]([O-])c(-c1ccc([N+](=O)[O-])cc1)c(N)[n+]2[O-]",
    "TGI": "> 100 µM"
  },
  {
    "Molecule": "C#CCNC(=O)N(CC#C)N=O",
    "TGI": "> 100 µM"
  }
]

Enquiry: If you can, please state the reported TGI value of CCOC(=O)[C@@H](C)C[C@H](Cc1ccccc1)NC(=O)c1nc([C@@H](C[C@H](C(C)C)N(C)C(=O)[C@@H](NC(=O)[C@H]2CCCCN2C)C(C)C)OC(C)=O)sc1CCOCc1ccccc1 .
Return: > 11.1 µM

---

System: M19-MEL melanoma
Experiment: NCI tumour cell line growth inhibition, 48 h
Assay Endpoint: TGI (µM)
Give the number; µM is assumed, so skip it.

[
  {
    "Molecule": "COC(=O)C(Cc1nc2ccccc2[nH]c1=O)/C(=N\\NC(C)(C)C)C(=O)Nc1c(C)cc(Br)cc1C (centres undefined)",
    "TGI (µM)": 90.7
  }
]

Enquiry: If you can, please state the reported TGI value of CCN(CC)CC(C)(C)C(=O)/C=C/c1cccc(/C=C/C(=O)C(C)(C)CN(CC)CC)c1 .
Return: 2.16

---

Test system: COLO 205 colon
Assay: NCI tumour cell line growth inhibition, 48 h
Assay Endpoint: GI50

# example entries with known answers
[
  {
    "Compound": "COC1C(CO)OC(n2c3ccccc3c3c4c(c5c6ccccc6[nH]c5c32)C(=O)NC4=O)C(O)C1O (stereo unspecified)",
    "Assay Endpoint": "GI50",
    "Test Value": "< 0.036 µM"
  },
  {
    "Compound": "Cc1ccc(NC(=O)c2ccc(CN3CCN(C)CC3)cc2)cc1Nc1nccc(-c2cccnc2)n1",
    "Assay Endpoint": "GI50",
    "Test Value": "16.7 µM"
  },
  {
    "Compound": "C=CCC(N[C@@H](CO)c1ccccc1)c1cn(Cc2ccccc2Cl)c(=O)n(Cc2ccccc2Cl)c1=O (stereo partly specified)",
    "Assay Endpoint": "GI50",
    "Test Value": "> 100 µM"
  },
  {
    "Compound": "O=c1cc(-c2ccccc2)oc2ccc(OC/C(=N/O)c3ccccc3)cc12",
    "Assay Endpoint": "GI50",
    "Test Value": "1.89 µM"
  },
  {
    "Compound": "CC1(C)N=C(N)N=C(N)N1c1ccc(CCCCc2ccccc2)c(Cl)c1",
    "Assay Endpoint": "GI50",
    "Test Value": "0.0281 µM"
  }
]

Enquiry: Give COLO 205 colon GI50 for COc1cc([C@@H]2c3cc4c(c(O)c3C[C@H]3COC(=O)[C@@H]32)OCO4)cc(OC)c1OC
Return: 0.239 µM

Enquiry: Try this compound too: CCOC(=O)C1=C(C)N=c2s/c(=C\c3ccccc3O)c(=O)n2C1c1ccc(OC)c2ccccc12 (stereo unspecified)
Return: 30.8 µM

Enquiry: Try this compound too: Nc1c(C(=O)c2ccc(-c3cccnc3)cc2)cnn1-c1ccc(F)cc1
Return: > 21.9 µM

Enquiry: Try this compound too: c1ccc([CH2][Sn]([CH2]c2ccccc2)([O]c2cccc3cccnc23)[O]c2cccc3cccnc23)cc1
Return: 0.194 µM

Enquiry: Try this compound too: COc1cccc(CCC2CCCN(c3cc(C)nc(N)n3)C2)c1 (stereo unspecified)
Return: 0.313 µM

Enquiry: Try this compound too: c1ccc(N2N=C(c3cccc(Nc4ccncc4)c3)CC2c2ccc3c(c2)OCO3)cc1 (stereo unspecified)
Return: 1.8 µM

Reference source for all entries: PubChem BioAssay (NCI)
